Tested on: Erythrocyte
ASSAY_SUMMARY: Protection against H2O2-induced oxidative stress in mouse RBC assessed as inhibition of hemolysis at 10 uM pretreated for 30 mins followed by H2O2 addition and measured after 5 hrs by malondialdehyde indicator based assay relative to control
Assay type: functional
READOUT_KIND: inhibition at 10 µM (%)
Give just the numeric value; % need not be written.

See these solved cases before continuing.
>  <SMILES_REPRESENTATION>
COc1c(O)c(CN(C)C)c2oc3c(CN(C)C)c(O)c(CC=C(C)C)c(O)c3c(=O)c2c1CC=C(C)C

>  <inhibition at 10 µM (%)>
66.3

$$$$
>  <SMILES_REPRESENTATION>
COc1c(O)c(CN2CCOCC2)c2oc3c(CN4CCOCC4)c(O)c(CC=C(C)C)c(O)c3c(=O)c2c1CC=C(C)C

>  <inhibition at 10 µM (%)>
22

$$$$
>  <SMILES_REPRESENTATION>
COc1c(O)cc2oc3c(CN4CCCC4)c(O)c(CC=C(C)C)c(O)c3c(=O)c2c1CC=C(C)C

>  <inhibition at 10 µM (%)>
17.5

$$$$
>  <SMILES_REPRESENTATION>
COc1c(O)c(CN2CCCCCC2)c2oc3c(CN4CCOCC4)c(O)c(CC=C(C)C)c(O)c3c(=O)c2c1CC=C(C)C

>  <inhibition at 10 µM (%)>
17.7

$$$$
>  <SMILES_REPRESENTATION>
COc1c(O)cc2oc3c(CN4CCCCCC4)c(O)c(CC=C(C)C)c(O)c3c(=O)c2c1CC=C(C)C

>  <inhibition at 10 µM (%)>
10.8

$$$$

Request: Quick one: inhibition at 10 µM of COc1c(O)c(CN2CCCCCC2)c2oc3c(CN4CCCCCC4)c(O)c(CC=C(C)C)c(O)c3c(=O)c2c1CC=C(C)C ?
Response: 19

Request: # iterate: CCCCNCc1c(O)c(CC=C(C)C)c(O)c2c(=O)c3c(CC=C(C)C)c(OC)c(O)cc3oc12
Response: 31.9

Request: # iterate: CCCCNCc1c(O)c(CC=C(C)C)c(O)c2c(=O)c3c(CC=C(C)C)c(OC)c(O)c(CN(C)C)c3oc12
Response: 50
